Assay: Retention time at 35 mM
Assay type: ADME
Settings: 35000 µM
PROPERTY MEASURED: Retention time (min)

Solved entries:
COc1c(-c2nc(C)c(-c3cccnc3)[nH]2)cc(Cl)c2[nH]c(CCC(=O)O)nc12 :: 3.27
CCOc1ccccc1-c1nc(C)c(-c2cccnc2)[nH]1 :: 5.08
CCOC(=O)COc1ccccc1-c1nc(C)c(-c2cccnc2)[nH]1 :: 6.57
Cc1ccccc1-c1nc(C)c(-c2cccnc2)[nH]1 :: 4.64
COc1cc(OC)c(-c2nc(C)c(-c3cccnc3)[nH]2)cc1NC(C)=O :: 2.5
COc1cc2c(cc1-c1nc(C)c(-c3cccnc3)[nH]1)nc(O)n2C :: 1.345
COC(=O)Nc1ccccc1-c1nc(C)c(-c2cccnc2)[nH]1 :: 7.27
CNC(=O)Nc1ccccc1-c1nc(C)c(-c2cccnc2)[nH]1 :: 5.35

a. Cc1[nH]c(-c2ccccc2Cl)nc1-c1cccnc1
b. COc1c(-c2nc(C)c(-c3cccnc3)[nH]2)cc2nc(C)[nH]c2c1Cl
Prompt: Param metric = Retention time; output whichever of a , b has the minimum value. Give the label under which the chosen entry appears.
Completion: b
(b: 4.05 min, a: 7.17 min)

---

Test: Retention time at 30 mM
Assay type: ADME
Conditions: 30000 µM
PROPERTY MEASURED: Retention time (min)

These recorded examples may help you get a feel for the data.
COc1c(-c2nc(C)c(-c3cccnc3)[nH]2)cc(Cl)c2[nH]c(C)nc12 :: 8.14
COc1cc2[nH]c(C)nc2cc1-c1nc(C)c(-c2cccnc2)[nH]1 :: 2.16
Cc1[nH]c(-c2ccccc2Cl)nc1-c1cccnc1 :: 7.83

I. COc1c(-c2nc(C)c(-c3cccnc3)[nH]2)ccc2[nH]c(C)nc12
II. COc1cc(NC(C)=O)c(Cl)cc1-c1nc(C)c(-c2cccnc2)[nH]1
Prompt: Response body: label of entry with the larger Retention time; valid values I , II . Output the label that corresponds to your choice.
Completion: II
(II: 7.01 min, I: 2.7 min)

---

Experiment: Retention time at 40 mM
Format: ADME
Settings: 40000 µM
PROPERTY MEASURED: Retention time (min)

Past entries and their recorded results:
CCOc1ccccc1-c1nc(C)c(-c2cccnc2)[nH]1 :: 4.77
COc1c(-c2nc(C)c(-c3cccnc3)[nH]2)cc2nc(C)[nH]c2c1Cl :: 3.79
CNC(=O)Nc1ccccc1-c1nc(C)c(-c2cccnc2)[nH]1 :: 5

I. COc1ccccc1-c1nc(C)c(-c2cccnc2)[nH]1
II. Cc1[nH]c(-c2ccccc2Cl)nc1-c1cccnc1
III. COc1cc2c(cc1-c1nc(C)c(-c3cccnc3)[nH]1)nc(O)n2C
Prompt: Your job: order these 3 records by Retention time, ascending. Show the ranking through the labels, in the order asked for.
Completion: III, I, II
(III: 1.331 min, I: 3.76 min, II: 6.64 min)

P. COc1cc(NC(C)=O)c(Cl)cc1-c1nc(C)c(-c2cccnc2)[nH]1
Q. Cc1[nH]c(-c2ccccc2N)nc1-c1cccnc1
Prompt: Please indicate which has the smaller reported Retention time: P , or Q . // return label of chosen record
Completion: Q
(Q: 3.07 min, P: 5.78 min)

1. COC(=O)Nc1ccccc1-c1nc(C)c(-c2cccnc2)[nH]1
2. COc1c(-c2nc(C)c(-c3cccnc3)[nH]2)cc(Cl)c2[nH]c(CCC(=O)O)nc12
Prompt: In terms of reported Retention time, does 1 or 2 have the smaller number? Please reply using the label of the selected record.
Completion: 2
